Every entry's value here was drawn from the NIST ThermoML archive (doi:10.1021/acs.jced.5b00627).

- assay.text: mn = molality of the nth substance listed, in mol/kg
- protocol.conditions: 308.15 K; 100 kPa; Liquid; Capillary tube (Ostwald / Ubbelohde) method; m1 = 0.08
value.kind: viscosity (mPa·s)

compound: COc1cc(-c2cc(-c3ccc(O)cc3)[nH]c(=O)c2C#N)ccc1O + C[S+](C)[O-]
viscosity [mPa·s]: 1.704
--
compound: COc1cc(-c2cc(-c3ccccc3O)[nH]c(=O)c2C#N)ccc1O + C[S+](C)[O-]
viscosity [mPa·s]: 1.685
--
compound: COc1cc(-c2cc(-c3ccccc3)[nH]c(=O)c2C#N)ccc1O + C[S+](C)[O-]
viscosity [mPa·s]: 1.668
--
compound: COc1cc(-c2cc(-c3ccc(Cl)cc3)[nH]c(=O)c2C#N)ccc1O + C[S+](C)[O-]
viscosity [mPa·s]: 1.699
